test system: IGROV1 ovarian; experiment: NCI tumour cell line growth inhibition, 48 h
# reported TGI; entries follow

Give reported TGI value for "NCCN=C(Nc1ccccc1)Nc1ccccc1" > 100 µM

Assign TGI to the following record: "NC1=NS(=O)(=O)Nc2nc(-c3ccc([N+](=O)[O-])o3)[nH]c21" 31.5 µM

Look up and report measured TGI for this entry: "CC(C)OC(=O)NNc1cc(Cl)ccc1Cl" > 100 µM

Tell us which TGI value is on record for "CC(C)N=c1cc2n(-c3ccc(Cl)cc3)c3ccccc3nc-2cc1Nc1ccc(Cl)cc1" > 50 µM

For the compound "Nc1ccc2[nH]c3c(-c4ccccc4)nccc3c2c1" , give its measured TGI value. > 100 µM
